Listing of recorded kon by entry.
- tgt: T1, recombinant human SOST (rhSOST) (human, UniProt Q9BQB4 24-213)
- T1 construct: Treated as one molecule; also called recombinant human SOST protein; human sclerostin
- T1 sequence: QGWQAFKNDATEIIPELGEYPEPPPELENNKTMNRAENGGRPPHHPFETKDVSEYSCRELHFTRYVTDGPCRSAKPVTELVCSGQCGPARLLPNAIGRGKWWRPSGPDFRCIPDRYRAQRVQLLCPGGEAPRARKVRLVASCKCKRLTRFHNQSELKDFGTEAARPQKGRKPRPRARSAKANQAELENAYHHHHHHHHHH
- protocol notes: SPR Biacore T200, IgG captured via anti-human Fc, rhSOST analyte, 37 C
Please provide the amount together with its unit, number first.

{"columns": ["binder", "observed measurement"],
 "data": [
  ["DM18 (antibody, V domains shown, also called wt/mL8) VH: EVQLLESGGGLVQPGGSLRLSCAASGHTFTDYWMQWVRQAPGKGLEWIGAIYPGDGDTRYNQKFKDRFTISRDNSKNTLYLQMNSLRAEDTAVYYCARSMDYWGQGTLVTVSS VL: DIVMTQSPDSLAVSLGERATINCRASKTVDSYGNSFMHWFQQKPGQPPKLLIHHSSNLESGVPDRFSGSGSGTDFTLTISSLQAEDVAVYYCLQTIDEPYTFGQGTKLEIK", "5.81e+06 M⁻¹ s⁻¹"]
]}

Notebook: DM1 (antibody, V domains shown, also called mH10/mL4) VH: EVQLLESGGGLVQPGGSLRLSCAASGHTFSDYWMQWVRQAPGKGLEWVGAIYPGDGDTRYNQKFKDRFTISRDNSKNTLYLQMNSLRAEDTAVYYCARSMDYWGQGTLVTVSS VL: DIVMTQSPDSLAVSLGERATINCRASKTVDSYGNSFMHWFQQKPGQPPKLLIHHSSNLESGVPDRFSGSGSGTDFTLTISSLQAEDVAVYYCLQTIEHPYTFGQGTKLEIK , kon read as 1.31e+06 M⁻¹ s⁻¹
